Taken from patent US20050130903A1.

experiment: stability in liver microsomes; type: in vitro ADME, rat; details: male, rat, liver microsomes, pH 7.4, male rat liver microsomes 0.5 mg/mL, NADPH regenerating system, without EH inhibitor, read-out: T1/2 (without EH inhibitor)
MEASURED PROPERTY: half-life at 3 μM (min)
Answers are plain numbers, in min.

Annotate the molecule CO[C@@H]1[C@H](OC(=O)N[C@@H](C(N)=O)C(C)C)CC[C@]2(CO2)[C@H]1[C@@]1(C)O[C@@H]1CC=C(C)C [Example 5] with its measured half-life at 3 μM.
11.9

* * *

assay: plasma stability in human plasma; assay type: in vitro ADME; conditions: human, plasma
MEASURED PROPERTY: half-life at 20 μM

Annotate the compound CO[C@@H]1[C@H](OC(=O)N[C@@H](C(N)=O)C(C)C)CC[C@]2(CO2)[C@H]1[C@@]1(C)O[C@@H]1CC=C(C)C with its measured half-life at 20 μM.
≥ 8.33 h
